All figures here come from patent US20260151403A1.

Molecular target: [NEK7]-[compound of formula (I)]-[CRBN/DDB1] complex (Homo sapiens, UniProt Q8TDX7+Q96SW2)
Sequence (Q8TDX7 whole entry): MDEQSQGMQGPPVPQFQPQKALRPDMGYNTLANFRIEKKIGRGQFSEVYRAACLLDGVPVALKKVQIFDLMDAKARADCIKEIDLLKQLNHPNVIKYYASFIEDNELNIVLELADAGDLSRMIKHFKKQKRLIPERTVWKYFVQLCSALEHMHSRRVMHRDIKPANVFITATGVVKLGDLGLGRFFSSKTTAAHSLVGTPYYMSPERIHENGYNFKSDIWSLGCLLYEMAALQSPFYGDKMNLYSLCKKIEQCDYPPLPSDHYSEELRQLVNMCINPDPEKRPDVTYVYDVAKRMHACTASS
Sequence (Q96SW2 whole entry): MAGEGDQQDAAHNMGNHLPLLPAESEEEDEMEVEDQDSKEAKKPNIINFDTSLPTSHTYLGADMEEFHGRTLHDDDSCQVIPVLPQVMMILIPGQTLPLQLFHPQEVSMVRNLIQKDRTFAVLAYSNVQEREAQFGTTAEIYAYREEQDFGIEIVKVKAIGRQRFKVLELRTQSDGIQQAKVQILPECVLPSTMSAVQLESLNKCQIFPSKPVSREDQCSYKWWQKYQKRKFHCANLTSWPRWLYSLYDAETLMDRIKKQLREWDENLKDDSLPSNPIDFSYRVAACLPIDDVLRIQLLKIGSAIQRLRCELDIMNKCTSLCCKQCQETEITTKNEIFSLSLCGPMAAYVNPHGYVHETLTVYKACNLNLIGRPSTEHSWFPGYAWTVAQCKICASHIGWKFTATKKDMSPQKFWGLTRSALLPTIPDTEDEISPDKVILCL
Sequence (Q16531 whole entry partner): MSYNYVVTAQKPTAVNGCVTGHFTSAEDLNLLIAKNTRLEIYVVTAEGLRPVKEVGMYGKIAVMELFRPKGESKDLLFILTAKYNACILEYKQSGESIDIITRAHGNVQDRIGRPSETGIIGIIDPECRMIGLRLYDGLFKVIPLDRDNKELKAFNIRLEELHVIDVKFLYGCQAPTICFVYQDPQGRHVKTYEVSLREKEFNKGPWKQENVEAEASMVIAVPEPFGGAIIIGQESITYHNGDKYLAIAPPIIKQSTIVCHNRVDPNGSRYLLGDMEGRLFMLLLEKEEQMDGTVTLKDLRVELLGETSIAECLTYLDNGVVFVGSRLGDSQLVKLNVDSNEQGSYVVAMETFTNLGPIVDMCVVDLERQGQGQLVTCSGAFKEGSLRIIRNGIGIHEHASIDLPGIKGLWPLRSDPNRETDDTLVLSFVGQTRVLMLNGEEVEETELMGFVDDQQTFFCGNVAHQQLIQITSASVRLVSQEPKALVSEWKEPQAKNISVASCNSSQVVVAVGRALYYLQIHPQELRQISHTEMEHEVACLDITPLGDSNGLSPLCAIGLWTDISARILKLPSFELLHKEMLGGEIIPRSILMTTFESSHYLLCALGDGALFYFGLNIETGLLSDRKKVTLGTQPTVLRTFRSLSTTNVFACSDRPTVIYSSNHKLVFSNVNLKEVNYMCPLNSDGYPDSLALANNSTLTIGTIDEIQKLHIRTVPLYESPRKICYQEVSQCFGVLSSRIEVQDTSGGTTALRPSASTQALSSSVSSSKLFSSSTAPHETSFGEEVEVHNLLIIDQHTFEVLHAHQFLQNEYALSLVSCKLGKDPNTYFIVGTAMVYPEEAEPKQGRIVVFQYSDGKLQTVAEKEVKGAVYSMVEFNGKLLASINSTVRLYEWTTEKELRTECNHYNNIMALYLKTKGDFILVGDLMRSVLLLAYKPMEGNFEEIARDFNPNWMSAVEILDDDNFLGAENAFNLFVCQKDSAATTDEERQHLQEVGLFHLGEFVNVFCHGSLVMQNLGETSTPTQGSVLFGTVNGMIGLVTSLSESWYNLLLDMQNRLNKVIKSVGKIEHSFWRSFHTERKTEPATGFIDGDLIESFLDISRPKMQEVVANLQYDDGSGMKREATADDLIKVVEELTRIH
Test: HTRF ternary complex assay
Type: binding
Conditions: dose-response, 180 min at 25° C.; read-out: HTRF ternary complex Average pEC50 by molecule (converted)
Structures can show the parent of a compound that is named as a salt.
Quantity name: EC50

Please review the following examples before continuing.
Compound: O=C1CCC(N2Cc3cc(C4CCC(c5ccccc5)CO4)ccc3C2=O)C(=O)N1 (single isomer, unassigned) [74 Isomer 2]
EC50: 100 to 316 nM
//
Compound: O=C1CCC(N2C(=O)c3ccc(C4CCCCN4)c4cccc2c34)C(=O)N1 (stereo not drawn) [Compound 66, trifluoroacetate]
EC50: 100 to 316 nM
//
Compound: O=C1CCC(N2Cc3cc([C@@H]4CCCCN4)ccc3C2=O)C(=O)N1 (stereo partly drawn) [Compound 10]
EC50: 316 to 1000 nM
//
Compound: O=C1CCCC(N2Cc3cc(-c4ccccn4)ccc3C2=O)C(=O)N1 (stereo not drawn) [29(2)]
EC50: > 3160 nM

Here COc1ccnc(-c2ccc3c(c2)CN(C2CCC(=O)NC2=O)C3=O)c1 (stereo not drawn) [27(2)] was tested on [NEK7]-[compound of formula (I)]-[CRBN/DDB1] complex (Homo sapiens, UniProt Q8TDX7+Q96SW2), and its EC50 came to 316 to 1000 nM

Here O=C1CCC(N2Cc3cc(C4CCCCN4)sc3C2=O)C(=O)N1 (stereo not drawn) [Compound 72] was tested on [NEK7]-[compound of formula (I)]-[CRBN/DDB1] complex (Homo sapiens, UniProt Q8TDX7+Q96SW2), and its EC50 came to > 3160 nM
